Where do the numbers come from? From PubChem BioAssay (Tox21).

assay: qHTS assay to test for compound auto fluorescence at 460 nm (blue) in HepG2 cell free culture (AID 720685); conditions: Cell-free culture medium, blue autofluorescence 405/460 nm; series mostly up to 91.3 µM; also: % is scaled to controls: 0 for no effect and ±100 for the full control effect
Activity calls are given as the source filed them. Calls follow the shape of the dose curve; as a rule, active = well fitted curve in the direction sought with a large enough effect in the repeat runs; inconclusive = weak or mixed curves; inactive = flat fitted curve, though single readings scatter.
value-kind: fluorescence, % of fluorescent control

Examples from the recorded data:
{"smiles-text": "CCCCCCN", "fluorescence, % of fluorescent control": "inactive"}
{"smiles-text": "CC(=O)Nc1ccc(S(=O)(=O)Nc2ccc([N+](=O)[O-])cc2)cc1", "fluorescence, % of fluorescent control": "inactive"}
{"smiles-text": "CCN(CC)CC(=O)Nc1c(C)cccc1C", "fluorescence, % of fluorescent control": "inactive"}
{"smiles-text": "O=C1CCCC(=O)O1", "fluorescence, % of fluorescent control": "inactive"}

// below: fluorescence, % of fluorescent control requested for another molecule
Lookup: Given the molecule CCN(C)C(=O)Oc1cccc([C@H](C)N(C)C)c1 , write its reported fluorescence, % of fluorescent control.
Found: inactive

###

target: Peroxisome proliferator-activated receptor delta (Homo sapiens) (UniProt Q03181); assay: qHTS assay to identify small molecule agonists of the peroxisome proliferator-activated receptor delta (PPARd) signaling pathway (AID 743212); conditions: HEK293H PPARd-UAS-bla, beta-lactamase FRET ratio, 17 h; series mostly up to 62.6 µM;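 also: HEK293H cells with PPARd UAS beta-lactamase reporter GeneBLAzer system; % is scaled to controls: 0 for no effect and ±100 for the full control effect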
Sequence (Q03181 whole entry, looked up): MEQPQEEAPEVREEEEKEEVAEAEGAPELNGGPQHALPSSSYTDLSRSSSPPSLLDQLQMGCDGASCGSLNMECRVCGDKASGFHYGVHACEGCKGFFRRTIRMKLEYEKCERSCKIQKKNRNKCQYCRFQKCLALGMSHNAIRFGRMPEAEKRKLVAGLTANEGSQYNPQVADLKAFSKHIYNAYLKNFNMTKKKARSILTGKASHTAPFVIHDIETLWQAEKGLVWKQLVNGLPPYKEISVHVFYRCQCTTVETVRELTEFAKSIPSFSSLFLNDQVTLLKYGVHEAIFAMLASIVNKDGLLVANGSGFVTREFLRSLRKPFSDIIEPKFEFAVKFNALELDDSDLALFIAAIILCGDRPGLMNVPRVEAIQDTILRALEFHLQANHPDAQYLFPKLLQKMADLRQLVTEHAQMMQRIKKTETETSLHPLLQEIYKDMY
Inconclusive results are not listed. Activity calls are given as the source filed them. The call rests on the fitted dose curve.
value-kind: activation

Examples from the recorded data:
{"compound": "CCCOC(OCCC)OCCC", "value": "inactive"}
{"compound": "Oc1ccccc1-c1nnco1", "value": "inactive"}
{"compound": "CN(CCOc1ccc(NS(C)(=O)=O)cc1)CCc1ccc(NS(C)(=O)=O)cc1", "value": "inactive"}
{"compound": "c1ccc2c(c1)ccc1c3ccccc3ccc21", "value": "inactive"}

Lookup: Provide measured activation on Peroxisome proliferator-activated receptor delta (Homo sapiens) (UniProt Q03181) for CN=C(NC#N)Nc1ccc(C2=NNC(=O)CC2C)cc1 (stereo not given) please.
Found: inactive

Lookup: Provide measured activation on Peroxisome proliferator-activated receptor delta (Homo sapiens) (UniProt Q03181) for C[C@@H](O)[C@H]1C(=O)N2C(C(=O)O)=C(SCCN=CN)C[C@H]12 please.
Found: inactive

Lookup: Provide measured activation on Peroxisome proliferator-activated receptor delta (Homo sapiens) (UniProt Q03181) for CC(C)C(=O)OCc1cccc(OC(=O)[C@@H]2N3C(=O)[C@@H](NC(=O)Cc4ccccc4)[C@H]3SC2(C)C)c1 please.
Found: inactive

###

assay: qHTS assay to identify small molecule antagonists of the retinoid-related orphan receptor gamma (ROR-gamma) signaling pathway - cell viability counter screen (AID 1159520); details: Tet-on RORgamma CHO cells viability, ATP luminescence, 16 h; series mostly up to 92.4 µM; also: % is scaled to controls: 0 for no effect and ±100 for the full control effect; nearly all actives have a fitted effect of over 50% in size
Results filed as inconclusive are left out. Calls of active or inactive are those of the source. Calls follow the shape of the dose curve; as a rule, active = well fitted cell-killing curve with a large enough effect in the repeat runs; inconclusive = weak or mixed curves, or effect the other way; inactive = no such curve, though single readings can be large or run the other way.
value-kind: activity, negative = cytotoxicity

Examples from the recorded data:
{"compound": "Cc1nc2n(c(=O)c1CCN1CCC(c3noc4cc(F)ccc34)CC1)CCC[C@H]2O", "activity, negative = cytotoxicity": "0.561% [at 19 µM] (inactive)"}
{"compound": "CCCOC(OCCC)OCCC", "activity, negative = cytotoxicity": "inactive"}
{"compound": "CCOC(=O)c1ccc(OC(=O)CCCCCN=C(N)N)cc1", "activity, negative = cytotoxicity": "inactive"}
{"compound": "CC(=O)N[C@@H](CCC(=O)O)C(=O)O", "activity, negative = cytotoxicity": "inactive"}
{"compound": "NS(=O)(=O)c1ccc(NC(=O)CCC(=O)O)cc1", "activity, negative = cytotoxicity": "inactive"}
{"compound": "O=C(OCC(COC(=O)c1cccnc1)(COC(=O)c1cccnc1)COC(=O)c1cccnc1)c1cccnc1", "activity, negative = cytotoxicity": "inactive"}

Lookup: Given the compound O=Cc1ccc(Cl)c(Cl)c1 , write its reported activity, negative = cytotoxicity.
Found: inactive

Lookup: Given the compound Nc1ccc([N+](=O)[O-])c(N)c1 , write its reported activity, negative = cytotoxicity.
Found: inactive

Lookup: Given the compound CC(C)CC(C)CC(C)CC(C)COC(=O)c1ccccc1C(=O)OCC(C)CC(C)CC(C)CC(C)C (configuration not stated) , write its reported activity, negative = cytotoxicity.
Found: inactive

Lookup: Given the compound CC(=O)OC(C)OC(=O)C(C)c1ccc(-c2ccccc2)c(F)c1 (configuration not stated) , write its reported activity, negative = cytotoxicity.
Found: inactive

Lookup: Given the compound CCCCCCCCCCCCCC , write its reported activity, negative = cytotoxicity.
Found: inactive

Lookup: Given the compound CCC(CC)CO , write its reported activity, negative = cytotoxicity.
Found: inactive
